# SYSTEM_TESTED: TANK binding kinase (TBK1) (Homo sapiens)
# Sequence (Q9UHD2 whole entry, species assumed): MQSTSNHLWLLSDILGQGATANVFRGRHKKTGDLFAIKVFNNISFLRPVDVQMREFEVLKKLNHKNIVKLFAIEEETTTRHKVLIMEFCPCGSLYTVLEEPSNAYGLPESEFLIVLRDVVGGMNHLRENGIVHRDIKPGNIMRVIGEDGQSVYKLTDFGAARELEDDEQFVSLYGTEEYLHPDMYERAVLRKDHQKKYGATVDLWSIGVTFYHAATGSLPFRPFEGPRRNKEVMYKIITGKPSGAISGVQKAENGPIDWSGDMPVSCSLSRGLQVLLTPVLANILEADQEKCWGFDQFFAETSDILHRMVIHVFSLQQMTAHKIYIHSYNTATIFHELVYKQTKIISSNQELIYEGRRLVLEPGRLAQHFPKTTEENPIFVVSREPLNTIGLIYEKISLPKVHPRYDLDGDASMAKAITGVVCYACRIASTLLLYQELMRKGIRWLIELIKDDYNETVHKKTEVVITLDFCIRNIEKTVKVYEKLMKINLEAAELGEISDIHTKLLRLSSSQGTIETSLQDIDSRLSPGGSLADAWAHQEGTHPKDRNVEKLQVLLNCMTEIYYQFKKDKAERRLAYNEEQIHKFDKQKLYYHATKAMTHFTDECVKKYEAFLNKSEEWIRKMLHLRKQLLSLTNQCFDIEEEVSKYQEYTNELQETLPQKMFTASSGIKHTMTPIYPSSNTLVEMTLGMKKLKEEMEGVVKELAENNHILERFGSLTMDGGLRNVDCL
pIC50: −log10 of the molar value.
EXPERIMENTAL_ENDPOINT: pIC50

Cn1cc(-c2cnc3[nH]cc(-c4cn(C(CCN5CCCC5)c5ccccc5)nn4)c3n2)cn1 (centres unmarked)
6.00 to 9.30
Cn1cc(-c2cnc3[nH]cc(-c4cn(Cc5cccc(F)c5)nn4)c3n2)cn1
6.00 to 9.30
Cn1cc(-c2cnc3[nH]cc(-c4cn(Cc5cccc(F)c5F)nn4)c3n2)cn1
6.00 to 9.30
c1ccc(Cn2cc(-c3c[nH]c4nccnc34)nn2)cc1
5.00 to 6.00

Attention now shifts to the item below.
pIC50 of Cn1cc(-c2cnc3[nH]cc(-c4cn(Cc5ccccc5C#N)nn4)c3n2)cn1 on TANK binding kinase (TBK1) (Homo sapiens)? 6.00 to 9.30
